Kindly supply the reported phosphorylation enrichment values for the records listed here.
Target: FGFR3 (UniProt P22607)
Sequence (P22607 whole entry, looked up): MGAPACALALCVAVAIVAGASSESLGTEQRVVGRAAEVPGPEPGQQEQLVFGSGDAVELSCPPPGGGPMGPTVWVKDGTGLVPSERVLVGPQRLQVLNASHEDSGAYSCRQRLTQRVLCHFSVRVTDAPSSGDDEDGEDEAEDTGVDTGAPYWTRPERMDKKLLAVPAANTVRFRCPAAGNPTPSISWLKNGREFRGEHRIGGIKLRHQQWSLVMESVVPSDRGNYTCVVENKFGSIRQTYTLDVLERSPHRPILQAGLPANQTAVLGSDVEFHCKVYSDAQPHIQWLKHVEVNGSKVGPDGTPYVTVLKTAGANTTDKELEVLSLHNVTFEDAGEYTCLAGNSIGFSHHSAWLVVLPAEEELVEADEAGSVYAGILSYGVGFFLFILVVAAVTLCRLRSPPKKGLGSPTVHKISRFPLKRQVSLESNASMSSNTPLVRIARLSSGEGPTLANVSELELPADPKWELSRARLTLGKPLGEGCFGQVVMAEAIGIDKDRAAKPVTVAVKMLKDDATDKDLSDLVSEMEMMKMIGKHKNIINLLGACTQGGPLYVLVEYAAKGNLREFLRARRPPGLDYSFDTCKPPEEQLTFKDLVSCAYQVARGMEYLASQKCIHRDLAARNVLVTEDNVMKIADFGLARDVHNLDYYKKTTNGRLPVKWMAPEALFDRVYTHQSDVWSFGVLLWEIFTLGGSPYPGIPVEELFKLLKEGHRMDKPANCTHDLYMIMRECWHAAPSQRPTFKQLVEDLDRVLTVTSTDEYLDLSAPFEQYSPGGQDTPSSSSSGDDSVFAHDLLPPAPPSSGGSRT
Assay: phosphorylation enrichment, bacterial display (enrichment ratio); higher = better substrate or ligand; peptides without Tyr show the background;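 note: 11-residue human phosphosite peptides and single-mutation variants displayed on the E. coli surface, counted by deep sequencing, each peptide's frequency after selection divided by its frequency in the unselected input library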;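 note: frequency after pTyr selection over input frequency; kinase dosed for 20-30% of maximal phosphorylation in three min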
Answer using only a numeral; do not append any unit.

Fill blank: measured phosphorylation enrichment of the sequence KVFRVYQGQQP [MUTYH_Y494] is ____.
0.494

Fill blank: measured phosphorylation enrichment of the sequence TDKLFYIFTSG [SLC27A4_Y243_YF] is ____.
0.886

Fill blank: measured phosphorylation enrichment of the sequence FRVAGYKTQGG [TIA1_Y383_E384K_YF] is ____.
0.468

Fill blank: measured phosphorylation enrichment of the sequence TIQIMYGCDVG [HLA-A_Y123] is ____.
0.817

Fill blank: measured phosphorylation enrichment of the sequence PSQRRYVFFFS [PTEN_Y174_YF] is ____.
1.24

Fill blank: measured phosphorylation enrichment of the sequence FHKALYTVRTF [PDE6C_Y266_S270T_YF] is ____.
0.691

Fill blank: measured phosphorylation enrichment of the sequence NFYEYYVDDPP [GCHFR_Y48] is ____.
4.76

Fill blank: measured phosphorylation enrichment of the sequence IGRHAYGDQFR [IDH1_Y135_YF] is ____.
0.383

Fill blank: measured phosphorylation enrichment of the sequence RRVLVYRGRGA [QDPR_Y16_G17R] is ____.
0.779

Fill blank: measured phosphorylation enrichment of the sequence PVGVLYKVKVY [PTS_Y128] is ____.
1.27

Fill blank: measured phosphorylation enrichment of the sequence NHFKRYNLCAE [PTEN_Y68_I67R_YF] is ____.
0.471

Fill blank: measured phosphorylation enrichment of the sequence KLIMECLPFGS [JAK2_Y931_Y931C_YF] is ____.
0.858

Fill blank: measured phosphorylation enrichment of the sequence TVEDHYFEGGI [TKT_Y563_YF] is ____.
1.03

Fill blank: measured phosphorylation enrichment of the sequence GQECEYPPTQD [METAP2_Y137] is ____.
0.852

Fill blank: measured phosphorylation enrichment of the sequence FIILIYAMKKK [SLCO1B1_Y645_YF] is ____.
0.377

Fill blank: measured phosphorylation enrichment of the sequence PLFRKYWPNHI [GREB1L_Y1560_YF] is ____.
0.565

Fill blank: measured phosphorylation enrichment of the sequence FKNGDYSEVMK [LCT_Y1638_N1639S] is ____.
0.468

Fill blank: measured phosphorylation enrichment of the sequence ALTRSYIREKV [CYP2C8_Y243] is ____.
0.367

Fill blank: measured phosphorylation enrichment of the sequence ISKQEYDEAGP [ACTC1_Y364] is ____.
0.819

Fill blank: measured phosphorylation enrichment of the sequence HYEDGYPGGSD [CTNND1_Y221] is ____.
0.945

Where do the numbers come from? From the supplement of paper PMC10065799.
